# Assay Details: in vivo
# Parameters: species or system mouse
# Condition Description: male, C57/BL6, brain and plasma, po; mouse, p.o. 10 mg/kg; AUC0–inf brain/plasma, total drug; read-out: brain-to-plasma ratio (Kp)
Attribute Measured: Kp

Prompt line: For the molecule OCc1cn(-c2ccc(Cl)c(C(F)(F)F)c2Cl)nn1 , what Kp is on record?
Response line: 1.2

====

# Assay Details: Aqueous solubility in PBS (pH 7.4)
# Type: physicochemical
# Condition Description: PBS pH 7.4; read-out: aq. solubility
Attribute Measured: solubility (µg/mL)
# number only, unit µg/mL dropped from output

Prompt line: For the molecule OCc1cn(-c2ccc(Cl)c(Cl)c2)nn1 , what solubility is on record?
Response line: 100

====

# Assay Details: Metabolic stability in rat hepatocytes
Attribute Measured: hepatocyte CLint (µL/min/1e6 cells)
# number only, unit µL/min/1e6 cells dropped from output

Prompt line: For the compound FC(F)(F)c1c(Cl)ccc(-n2ccnn2)c1Cl , what hepatocyte CLint is on record?
Response line: 8.3

====

# Assay Details: Plasma protein binding, rapid equilibrium dialysis
# Condition Description: mouse, mouse plasma (K2EDTA), pH 7.4
Attribute Measured: recovery at 5 h, 10 µM (%)
# number only, unit % dropped from output

Prompt line: For the compound FC(F)(F)c1c(Cl)ccc(-n2ccnn2)c1Cl , what recovery at 5 h, 10 µM is on record?
Response line: 89.9

====

# Assay Details: Distribution coefficient LogD7.4 (shake flask)
# Assay type: physicochemical
# Condition Description: 1-octanol/10 mM phosphate buffer, pH 7.4, octanol/buffer
Attribute Measured: logD at 1 h
When you answer, write just the number.

Prompt line: For the molecule OCc1cn(-c2ccc(Cl)c(Cl)c2)nn1 , what logD at 1 h is on record?
Response line: 2.41

Prompt line: For the molecule COCCc1ccc(OCC(O)CNC(C)C)cc1 (centres unmarked) [Metoprolol, reference compound] , what logD at 1 h is on record?
Response line: -0.27

====

# Target System: human Notum (81–451 Cys330Ser) (Homo sapiens, UniProt Q6P988, C330S)
# Construct: human Notum (81–451 Cys330Ser) as the enzyme; made in house
# Sequence (Q6P988 81-451 C330S): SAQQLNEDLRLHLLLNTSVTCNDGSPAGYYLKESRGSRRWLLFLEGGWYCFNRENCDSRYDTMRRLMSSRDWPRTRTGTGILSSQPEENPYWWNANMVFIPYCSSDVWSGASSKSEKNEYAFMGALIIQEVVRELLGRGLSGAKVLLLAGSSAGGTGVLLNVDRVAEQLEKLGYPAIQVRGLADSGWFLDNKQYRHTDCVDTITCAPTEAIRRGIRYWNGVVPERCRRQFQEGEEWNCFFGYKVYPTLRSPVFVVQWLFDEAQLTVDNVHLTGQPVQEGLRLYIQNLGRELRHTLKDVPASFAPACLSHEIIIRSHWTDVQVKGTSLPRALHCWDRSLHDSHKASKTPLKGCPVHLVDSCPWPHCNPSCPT
# Assay Details: Notum OPTS biochemical assay
# Condition Description: OPTS substrate; mean; read-out: Notum IC50
Attribute Measured: IC50 (nM)
# number only, unit nM dropped from output

Worked examples follow.
Molecule: N#Cc1cccc(-n2cc(CO)nn2)c1 [7h]
Unit Of Measure: nM
IC50: 83000

Molecule: CNC(=O)c1cn(-c2ccc(Cl)c(C(F)(F)F)c2Cl)nn1 [8h]
Unit Of Measure: nM
IC50: 2300

Molecule: CCOc1cccc(-n2cc(CO)nn2)c1 [7i]
Unit Of Measure: nM
IC50: 230000

Prompt line: For the molecule Cc1ccc(-n2cc(CO)nn2)cc1 [7k] , what IC50 is on record?
Response line: 13000

Prompt line: For the molecule CC(O)Cc1cn(-c2ccc(Cl)c(C(F)(F)F)c2Cl)nn1 (centres unmarked) [8d] , what IC50 is on record?
Response line: 1700

Prompt line: For the molecule Cc1cn(-c2ccc(Cl)c(C(F)(F)F)c2Cl)nn1 [8k] , what IC50 is on record?
Response line: 110

Prompt line: For the molecule OC1(Cc2cn(-c3ccc(Cl)c(C(F)(F)F)c3Cl)nn2)COC1 [8e] , what IC50 is on record?
Response line: 7400

Prompt line: For the molecule FC(F)(F)c1c(Cl)ccc(-n2cnnn2)c1Cl [9b] , what IC50 is on record?
Response line: 140

Prompt line: For the molecule OCc1cn(-c2ccc(Cl)c(C(F)(F)F)c2Cl)nn1 [7y] , what IC50 is on record?
Response line: 9.5

Prompt line: For the molecule FC(F)(F)c1c(Cl)ccc(-n2cnnc2)c1Cl [9a] , what IC50 is on record?
Response line: 1300

Prompt line: For the molecule NC(=O)c1cn(-c2ccc(Cl)c(C(F)(F)F)c2Cl)nn1 [8g] , what IC50 is on record?
Response line: 1200

Prompt line: For the molecule CCOc1ccc(-n2cc(CO)nn2)cc1 [7n] , what IC50 is on record?
Response line: 78000

Prompt line: For the molecule FC(F)(F)c1c(Cl)cnc(-n2ccnn2)c1Cl [9c] , what IC50 is on record?
Response line: 7.5

Prompt line: For the molecule OCCCc1cn(-c2ccc(Cl)c(C(F)(F)F)c2Cl)nn1 [8c] , what IC50 is on record?
Response line: 1800
